Values from ChEMBL document CHEMBL1142927

targetUnderTest: GABA-A receptor; alpha-1/beta-2/gamma-2 (Rattus norvegicus, UniProt P18508+P62813+P63138)
Sequence (P18508 whole entry): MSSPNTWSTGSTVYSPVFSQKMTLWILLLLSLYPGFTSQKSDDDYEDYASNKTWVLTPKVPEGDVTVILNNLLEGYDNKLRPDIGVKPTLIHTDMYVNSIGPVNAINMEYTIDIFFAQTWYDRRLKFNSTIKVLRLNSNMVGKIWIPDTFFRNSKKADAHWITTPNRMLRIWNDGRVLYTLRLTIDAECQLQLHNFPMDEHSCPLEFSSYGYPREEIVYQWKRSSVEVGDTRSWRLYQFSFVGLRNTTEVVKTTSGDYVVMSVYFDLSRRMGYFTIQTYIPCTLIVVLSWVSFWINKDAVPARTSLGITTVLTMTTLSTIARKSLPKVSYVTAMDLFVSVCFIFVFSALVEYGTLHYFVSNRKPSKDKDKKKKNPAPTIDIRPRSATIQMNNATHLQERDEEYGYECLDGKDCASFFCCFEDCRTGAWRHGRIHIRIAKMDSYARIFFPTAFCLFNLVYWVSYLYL
Sequence (P62813 whole entry): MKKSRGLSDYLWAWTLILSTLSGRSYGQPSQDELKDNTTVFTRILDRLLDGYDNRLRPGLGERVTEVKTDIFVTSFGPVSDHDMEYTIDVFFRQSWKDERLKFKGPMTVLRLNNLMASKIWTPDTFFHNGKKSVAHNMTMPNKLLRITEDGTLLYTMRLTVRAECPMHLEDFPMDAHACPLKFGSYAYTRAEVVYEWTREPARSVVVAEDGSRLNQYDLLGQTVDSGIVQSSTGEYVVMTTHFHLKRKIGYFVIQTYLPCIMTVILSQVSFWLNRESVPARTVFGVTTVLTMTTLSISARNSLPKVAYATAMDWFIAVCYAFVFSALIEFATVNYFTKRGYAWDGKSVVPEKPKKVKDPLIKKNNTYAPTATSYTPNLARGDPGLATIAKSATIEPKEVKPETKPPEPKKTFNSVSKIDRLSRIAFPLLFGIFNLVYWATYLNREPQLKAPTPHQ
Sequence (P63138 whole entry): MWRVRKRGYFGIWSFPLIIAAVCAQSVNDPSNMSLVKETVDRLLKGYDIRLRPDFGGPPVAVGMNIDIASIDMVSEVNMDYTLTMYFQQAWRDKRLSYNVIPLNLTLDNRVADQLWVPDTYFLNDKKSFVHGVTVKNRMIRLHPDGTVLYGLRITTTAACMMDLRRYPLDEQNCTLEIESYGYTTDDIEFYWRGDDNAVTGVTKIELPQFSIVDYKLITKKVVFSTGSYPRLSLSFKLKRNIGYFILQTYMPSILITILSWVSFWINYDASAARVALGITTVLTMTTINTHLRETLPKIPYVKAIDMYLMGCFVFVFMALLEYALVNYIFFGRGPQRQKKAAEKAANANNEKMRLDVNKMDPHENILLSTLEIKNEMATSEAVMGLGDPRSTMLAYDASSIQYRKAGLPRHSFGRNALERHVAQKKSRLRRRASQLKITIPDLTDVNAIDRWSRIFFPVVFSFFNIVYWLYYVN
assaySummary: Displacement of [3H]Ro15-1788 from rat recombinant GABA alpha-1-beta-2-gamma-2 receptor expressed in HEK293 cells

[
  {
    "chemicalStructure": "CCOc1ccc2nnc3c(I)cnn3c2c1",
    "Ki": "13.8 nM"
  },
  {
    "chemicalStructure": "CCOc1ccc2n[n+]([O-])c3c(I)cnn3c2c1",
    "Ki": "2.6 nM"
  },
  {
    "chemicalStructure": "CCOc1ccc2c(c1)n1ncc(I)c1n[n+]2[O-]",
    "Ki": "4.1 nM"
  }
]
